The entries below come with measured pIC50 values attached.
# testedOn: Tyrosine-protein phosphatase non-receptor type 11 (Homo sapiens, UniProt Q06124)
# Sequence (Q06124 whole entry): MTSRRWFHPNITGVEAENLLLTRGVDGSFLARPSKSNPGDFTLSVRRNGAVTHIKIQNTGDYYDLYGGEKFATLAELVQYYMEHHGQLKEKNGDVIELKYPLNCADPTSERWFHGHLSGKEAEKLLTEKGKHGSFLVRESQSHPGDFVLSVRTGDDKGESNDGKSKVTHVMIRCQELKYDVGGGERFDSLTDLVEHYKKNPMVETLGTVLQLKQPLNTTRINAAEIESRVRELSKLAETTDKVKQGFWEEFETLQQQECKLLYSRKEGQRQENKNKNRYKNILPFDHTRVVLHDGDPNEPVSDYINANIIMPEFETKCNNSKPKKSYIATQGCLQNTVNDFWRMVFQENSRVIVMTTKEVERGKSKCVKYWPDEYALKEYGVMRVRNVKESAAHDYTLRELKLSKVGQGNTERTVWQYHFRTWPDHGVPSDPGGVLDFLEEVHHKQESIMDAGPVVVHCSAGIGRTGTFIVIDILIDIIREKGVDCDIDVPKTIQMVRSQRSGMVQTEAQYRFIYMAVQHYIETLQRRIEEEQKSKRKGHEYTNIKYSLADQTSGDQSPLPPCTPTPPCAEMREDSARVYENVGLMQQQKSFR
# assayMethodText: Inhibition of SHP2 (unknown origin)
# conditionLabel: read-out: IC50
Scale: pIC50 equals -log10([C]), with [C] in mol/L.

Example results:
COc1ccc(C(=O)OCCCCC#Cc2ccc(C(=O)OC3CSSC3)cc2)cc1	5.18
O=C(OC1CSSC1)c1ccc(CCCCCCOC(=O)c2cc(Br)ccc2Br)cc1	5.01
O=C(OC1CSSC1)c1ccc(OCCCOC(=O)c2cc(Br)ccc2Br)cc1	4.96
COc1cccc(C(=O)OCCCCC#Cc2ccc(C(=O)OC3CSSC3)cc2)c1	4.46

Here is the next item to consider.
Identify measured pIC50 associated with O=C(OC1CSSC1)c1ccc(C#CCCCCOC(=O)c2cc(Br)ccc2Br)cc1
4.88

----------
# testedOn: Tyrosine-protein phosphatase non-receptor type 11 (Homo sapiens)
# assayMethodText: Inhibition of SHP2 (unknown origin)
# conditionLabel: read-out: IC50
resultType: pIC50
Scale: pIC50 equals -log10([C]), with [C] in mol/L.

O=C(OCCCCC#Cc1ccc(C(=O)OC2CSSC2)cc1)c1ccc([N+](=O)[O-])cc1	4.61

Look up and report measured pIC50 (Tyrosine-protein phosphatase non-receptor type 11 (Homo sapiens)) for the following molecule: O=C(OCCCCC#Cc1ccc(C(=O)OC2CSSC2)cc1)c1cccc(F)c1
5.05

Look up and report measured pIC50 (Tyrosine-protein phosphatase non-receptor type 11 (Homo sapiens)) for the following molecule: O=C(OC1CSSC1)c1ccc(C#CCCCCOC(=O)c2ccccc2F)cc1
4.98

Look up and report measured pIC50 (Tyrosine-protein phosphatase non-receptor type 11 (Homo sapiens)) for the following molecule: COc1ccccc1C(=O)OCCCCC#Cc1ccc(C(=O)OC2CSSC2)cc1
4.74

Look up and report measured pIC50 (Tyrosine-protein phosphatase non-receptor type 11 (Homo sapiens)) for the following molecule: O=C(OC1CSSC1)c1ccc(C#CCCOC(=O)c2cc(Br)ccc2Br)cc1
5.08

----------
# testedOn: UniProt P17706
# Sequence (P17706 whole entry): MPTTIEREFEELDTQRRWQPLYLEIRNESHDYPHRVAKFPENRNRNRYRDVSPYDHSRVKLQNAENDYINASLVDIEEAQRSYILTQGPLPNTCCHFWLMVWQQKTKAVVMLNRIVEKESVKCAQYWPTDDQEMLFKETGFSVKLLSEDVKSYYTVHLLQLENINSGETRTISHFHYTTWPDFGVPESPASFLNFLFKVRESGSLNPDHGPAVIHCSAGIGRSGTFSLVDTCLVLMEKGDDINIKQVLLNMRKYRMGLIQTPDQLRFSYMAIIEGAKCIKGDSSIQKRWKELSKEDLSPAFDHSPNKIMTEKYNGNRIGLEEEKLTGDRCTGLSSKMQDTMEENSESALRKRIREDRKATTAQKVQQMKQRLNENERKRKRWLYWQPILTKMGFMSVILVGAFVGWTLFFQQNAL
# assayMethodText: Inhibition of TCPTP (unknown origin)
The entries below come with measured pIC50 values attached.
Scale: pIC50 equals -log10([C]), with [C] in mol/L.

Example results:
COc1ccc(C(=O)OCCCCC#Cc2ccc(C(=O)OC3CSSC3)cc2)cc1	5.34
O=C(OCCCCC#Cc1ccc(C(=O)OC2CSSC2)cc1)c1ccc(F)cc1	5.36
O=C(OC1CSSC1)c1ccc(C#CCCCCOC(=O)c2ccccc2F)cc1	5.19
O=C(OCCCCC#Cc1ccc(C(=O)OC2CSSC2)cc1)c1ccc([N+](=O)[O-])cc1	5.02
O=C(OC1CSSC1)c1ccc(OCCOC(=O)c2cc(Br)ccc2Br)cc1	4.46

Identify measured pIC50 associated with O=C(OC1CSSC1)c1ccc(C#CCCOC(=O)c2cc(Br)ccc2Br)cc1
4.57

----------
# testedOn: UniProtKB P29350
# assayMethodText: Inhibition of SHP1 (unknown origin)
# conditionLabel: read-out: IC50
resultType: IC50 (µM)
Respond with the bare value in µM.

Identify measured IC50 associated with COc1cccc(C(=O)OCCCCC#Cc2ccc(C(=O)OC3CSSC3)cc2)c1
38.4

----------
The entries below come with measured pIC50 values attached.
# testedOn: Tyrosine-protein phosphatase non-receptor type 1 (Homo sapiens)
# Sequence (P18031 whole entry): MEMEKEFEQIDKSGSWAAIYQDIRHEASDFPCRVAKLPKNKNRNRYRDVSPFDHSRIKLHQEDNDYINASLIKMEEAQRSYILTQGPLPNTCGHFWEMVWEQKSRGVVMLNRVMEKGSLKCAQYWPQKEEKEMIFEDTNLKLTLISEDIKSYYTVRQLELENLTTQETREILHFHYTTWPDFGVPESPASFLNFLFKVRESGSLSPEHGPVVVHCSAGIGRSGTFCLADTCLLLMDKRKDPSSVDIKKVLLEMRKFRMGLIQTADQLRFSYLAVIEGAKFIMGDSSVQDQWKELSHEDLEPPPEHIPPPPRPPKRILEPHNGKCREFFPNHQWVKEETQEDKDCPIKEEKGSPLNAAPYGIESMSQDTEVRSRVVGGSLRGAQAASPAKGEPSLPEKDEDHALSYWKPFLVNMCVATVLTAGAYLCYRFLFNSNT
# assayMethodText: Inhibition of PTP1B (unknown origin)
# conditionLabel: read-out: IC50
Scale: pIC50 equals -log10([C]), with [C] in mol/L.

Example results:
COc1ccc(C(=O)OCCCCC#Cc2ccc(C(=O)OC3CSSC3)cc2)cc1	5.18
O=C(OC1CSSC1)c1ccc(C#CCCCCOC(=O)c2ccccc2F)cc1	5.35
O=C(OCCCCC#Cc1ccc(C(=O)OC2CSSC2)cc1)c1ccc([N+](=O)[O-])cc1	4.99

Identify measured pIC50 associated with COc1ccccc1C(=O)OCCCCC#Cc1ccc(C(=O)OC2CSSC2)cc1
4.63

Identify measured pIC50 associated with O=C(OC1CSSC1)c1ccc(C#CCCCCOC(=O)c2ccccc2[N+](=O)[O-])cc1
5.04

Identify measured pIC50 associated with O=C(OCCCCC#Cc1ccc(C(=O)OC2CSSC2)cc1)c1cccc([N+](=O)[O-])c1
5.01

Identify measured pIC50 associated with COc1cccc(C(=O)OCCCCC#Cc2ccc(C(=O)OC3CSSC3)cc2)c1
4.58

Identify measured pIC50 associated with O=C(OC1CSSC1)c1ccc(CCCCCCOC(=O)c2cc(Br)ccc2Br)cc1
5.57

----------
# testedOn: Tyrosine-protein phosphatase non-receptor type 6 (Homo sapiens, UniProt P29350)
# Sequence (P29350 whole entry): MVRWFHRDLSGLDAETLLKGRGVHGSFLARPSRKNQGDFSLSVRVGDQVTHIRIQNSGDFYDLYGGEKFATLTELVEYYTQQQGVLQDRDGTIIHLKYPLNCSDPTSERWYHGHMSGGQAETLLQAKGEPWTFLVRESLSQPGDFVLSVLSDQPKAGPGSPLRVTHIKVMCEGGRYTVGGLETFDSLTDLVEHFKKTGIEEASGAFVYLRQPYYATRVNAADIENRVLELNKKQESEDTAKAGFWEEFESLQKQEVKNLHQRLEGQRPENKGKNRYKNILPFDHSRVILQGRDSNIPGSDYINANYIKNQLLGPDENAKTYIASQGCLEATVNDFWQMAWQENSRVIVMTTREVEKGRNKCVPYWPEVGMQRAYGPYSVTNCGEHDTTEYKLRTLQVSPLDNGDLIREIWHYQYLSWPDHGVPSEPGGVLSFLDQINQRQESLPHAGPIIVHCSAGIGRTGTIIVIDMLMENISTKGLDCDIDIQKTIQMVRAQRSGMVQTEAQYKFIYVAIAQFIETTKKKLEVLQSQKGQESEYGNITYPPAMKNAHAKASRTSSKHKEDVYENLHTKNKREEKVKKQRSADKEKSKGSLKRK
# assayMethodText: Inhibition of SHP1 (unknown origin)
# conditionLabel: read-out: IC50
resultType: pIC50
Scale: pIC50 equals -log10([C]), with [C] in mol/L.

Example results:
O=C(OC1CSSC1)c1ccc(CCCCCCOC(=O)c2cc(Br)ccc2Br)cc1	4.95
O=C(OCCCCC#Cc1ccc(C(=O)OC2CSSC2)cc1)c1ccc([N+](=O)[O-])cc1	4.60
O=C(OCCCCC#Cc1ccc(C(=O)OC2CSSC2)cc1)c1cccc([N+](=O)[O-])c1	4.63
O=C(OC1CSSC1)c1ccc(OCCCOC(=O)c2cc(Br)ccc2Br)cc1	4.49

Here is the next item to consider.
Identify measured pIC50 associated with O=C(OCCCCC#Cc1ccc(C(=O)OC2CSSC2)cc1)c1cccc(F)c1
5.00

----------
# testedOn: Tyrosine-protein phosphatase non-receptor type 6 (Homo sapiens)
# assayMethodText: Inhibition of SHP1 (unknown origin)
# conditionLabel: read-out: IC50
pIC50: −log10 of the molar value.
Parameter threshold = 5. Response is true (1) when pIC50 meets or exceeds it, else false (0).

Use the examples below as a reference point.
O=C(OC1CSSC1)c1ccc(C#CCCOC(=O)c2cc(Br)ccc2Br)cc1	false (0)
COc1ccccc1C(=O)OCCCCC#Cc1ccc(C(=O)OC2CSSC2)cc1	false (0)

In the following, a different molecule is considered.
hey, is pIC50 for this one >= 5? COc1ccc(C(=O)OCCCCC#Cc2ccc(C(=O)OC3CSSC3)cc2)cc1
true (1)

----------
The entries below come with measured IC50 values attached.
# testedOn: UniProt:P29350
# assayMethodText: Inhibition of SHP1 (unknown origin)
# conditionLabel: read-out: IC50
Respond with the bare value in µM.

Example results:
O=C(OC1CSSC1)c1ccc(C#CCCCCOC(=O)c2ccccc2F)cc1	8.67
O=C(OC1CSSC1)c1ccc(C#CCCCCOC(=O)c2ccccc2[N+](=O)[O-])cc1	9.25

Identify measured IC50 associated with O=C(OCCCCC#Cc1ccc(C(=O)OC2CSSC2)cc1)c1ccc(F)cc1
9.21

Taken from ChEMBL document CHEMBL3400144.
